Molecular target: T1, recombinant purification-tagged human GM-CSF receptor α extracellular domain (human, UniProt P15509 23-320)
T1 construct: Amino acids 1 to 298 of the mature receptor; also called purified GM-CSFRα extracellular domain; soluble extracellular domain of GM-CSFRα; not shown: N-terminal purification tag; Flag-tagged
T1 sequence: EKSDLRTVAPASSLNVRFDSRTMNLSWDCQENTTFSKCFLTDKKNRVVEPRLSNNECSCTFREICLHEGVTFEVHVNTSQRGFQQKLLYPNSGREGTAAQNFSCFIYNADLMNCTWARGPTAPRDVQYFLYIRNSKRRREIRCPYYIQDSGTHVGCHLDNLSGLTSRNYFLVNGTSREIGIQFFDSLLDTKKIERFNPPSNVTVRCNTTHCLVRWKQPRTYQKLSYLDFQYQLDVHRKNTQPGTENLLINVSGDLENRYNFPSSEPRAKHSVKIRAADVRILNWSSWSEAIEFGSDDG
Experiment: SPR (BIAcore 2000); IgG4 captured on protein A, tagged receptor ECD as analyte; 1:1 Langmuir fit
MEASURED ENDPOINT: Kd (nM)
Give bare numbers, in nM.

Return reported Kd values for all items listed beneath this line.
1. Antibody 8 (antibody, V domains shown, also called Antibody 08; Ab8) VH: QVQLVQSGAEVKKPGASVKVSCKISGHSLSELSIHWVRQTPTKGFEWMGGFDPEENEIVYAQRFQGRVTMTEDTSIDTAYLTLSSLRSDDTAVYYCAIVGSFSPPAYRPWGKGTMVTVSS VL: QAVLTQPSSVSGAPGQRVTISCTGSGSNIGAPYDVSWYQQLPGTAPKLLIYHNNKRPSGVPDRFSASKSGTSASLAITGLQADDEADYYCQSYDSSLSGSVFGGGTKVTVL
2. Antibody 10 (antibody, V domains shown, also called Ab10) VH: QVQLVQSGAEVKKPGASVKVSCKISGHSLSELSIHWVRQTPTKGFEWMGGFDPEENEIVYAQRFQGRVTMTEDTSIDTAYLTLSSLRSDDTAVYYCAIVGSFSGLAYRPWGKGTMVTISS VL: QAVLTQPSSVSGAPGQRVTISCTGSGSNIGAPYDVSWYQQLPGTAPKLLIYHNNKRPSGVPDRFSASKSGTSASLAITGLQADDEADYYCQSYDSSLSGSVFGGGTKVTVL
3. Antibody 6, non-germlined IgG4 (antibody, V domains shown) VH: QVQLVQSGAEVKKPGASVKVSCKISGHSLSELSIHWVRQTPTKGFEWMGGFDPEENEIVYAQRFQGRVTMTEDTSIDTAYLTLSSLRSDDTAVYYCSIVGSFSPLTLGLWGKGTMVTVSS VL: QAVLTQPSSVSGAPGQRVTISCTGSGSNIGAPYDVSWYQQLPGTAPKLLIYHNNKRPSGVPDRFSASKSGTSASLAITGLQADDEADYYCATVEAGLSGSVFGGGTKLTVL
4. Antibody 19 (antibody, V domains shown, also called Ab19) VH: QVQLVQSGAEVKKPGASVKVSCKISGHSLSELSIHWVRQTPTKGFEWMGGFDPEENEIVYAQRFQGRVTMTEDTSIDTAYLTLSSLRSDDTAVYYCAIVGSVSRITYGFWGKGTMVTVSS VL: QAVLTQPSSVSGAPGQRVTISCTGSGSNIGAPYDVSWYQQLPGTAPKLLIYHNNKRPSGVPDRFSASKSGTSASLAITGLQADDEADYYCQSYDSRNPHVIFGGGTKLTVL

Result:
1. 0.552
2. 1.5
3. 0.139
4. 0.388
